Assignment: determine reported IC50 for the given compounds.
# Tested on: HCV replicon 1AY93H
# protocol_details: microbe, parasite or virus in culture
# Assay type: cell-based, Hepatitis C virus (HCV)
# measurement_parameters: read-out: 1A Y93H IC50; replicon 1AY93H; Replicon Assay A
Give bare numbers, in pM.

Input line: Fill in the recorded IC50 for this compound, with HCV replicon 1AY93H as test system: COC(=O)NC(C(=O)N1CCC[C@H]1c1ncc(-c2ccc3c(c2)cc2n3C(c3ccc(C4CC4)s3)Oc3cc(-c4cnc([C@@H]5CCCN5C(=O)[C@@H](NC(=O)OC)C(C)C)[nH]4)cc(F)c3-2)[nH]1)C1CCOC(C)(C)C1 (single isomer, unassigned) [Compound 224]
Output line: 8880

Report IC50 for each item below.
1. COC(=O)NC(C(=O)N1CCC[C@H]1c1ncc(-c2ccc3c(c2)cc2n3C(c3ccc(C(C)C)s3)Oc3cc(-c4cnc([C@@H]5CCCN5C(=O)[C@@H](NC(=O)OC)C(C)C)[nH]4)cc(C)c3-2)[nH]1)C1C[C@@H](C)O[C@@H](C)C1 (single isomer, unassigned) [Compound 366]
2. CCc1ccc(C2Oc3cc(-c4cnc([C@@H]5CCCN5C(=O)[C@@H](NC(=O)OC)C(C)C)[nH]4)cc(F)c3-c3cc4cc(-c5cnc([C@@H]6CCCN6C(=O)C(NC(=O)OC)C6CCOC(C)(C)C6)[nH]5)ccc4n32)s1 (single isomer, unassigned) [Compound 153]
3. COC(=O)NC(C(=O)N1CCC[C@H]1c1ncc(-c2ccc3c(c2)cc2n3C(c3ccc(C4CC4)s3)Oc3cc(-c4cnc([C@@H]5C[C@@H](F)CN5C(=O)[C@@H](NC(=O)OC)C(C)C)[nH]4)cc(F)c3-2)[nH]1)C(C)(C)F (single isomer, unassigned) [Compound 114]

Output line:
1. 12.3
2. 422
3. 2
